Value source: paper PMC6491728

Biological target: ALK5 (Mus musculus, UniProt Q64729)
Construct: determined in C2C12 cell lines (ATCC; Manassas, VA, United States); host or cells: C2C12
Sequence (Q64729 30-503): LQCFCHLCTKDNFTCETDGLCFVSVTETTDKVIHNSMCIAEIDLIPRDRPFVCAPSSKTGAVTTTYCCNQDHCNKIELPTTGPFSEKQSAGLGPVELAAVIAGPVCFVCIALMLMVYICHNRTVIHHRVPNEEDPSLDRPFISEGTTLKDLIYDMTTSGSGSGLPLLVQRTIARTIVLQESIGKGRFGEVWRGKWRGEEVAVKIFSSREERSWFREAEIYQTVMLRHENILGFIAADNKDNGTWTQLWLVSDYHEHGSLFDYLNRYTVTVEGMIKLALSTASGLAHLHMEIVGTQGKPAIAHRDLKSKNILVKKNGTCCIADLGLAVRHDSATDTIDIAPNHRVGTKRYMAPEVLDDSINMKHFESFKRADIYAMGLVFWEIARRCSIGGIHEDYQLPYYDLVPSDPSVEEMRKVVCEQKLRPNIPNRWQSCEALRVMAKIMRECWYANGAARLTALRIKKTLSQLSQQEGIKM
Test: TGFβ-stimulated SMAD2/3 phosphorylation in C2C12 cells (HTRF)
Assay type: cell-based
Description: The in vitro activity toward to ALK2 and the selectivity over ALK3 and ALK5 were determined in C2C12 cell lines (ATCC; Manassas, VA, United States) through measuring the phosphorylation level of SMAD1/5/8 (for ALK2 and ALK3) or SMAD2/3 (for ALK5) under the stimulation of BMP6 (mediated by ALK2), BMP4 (mediated by ALK3) and TGFβ (mediated by ALK5), respectively, by using homogeneous time resolved fluorescence (HTRF; a manuscript in preparation).
REPORTED ENDPOINT: pIC50
Here pIC50 is given on a logarithmic scale as minus log10 of the concentration in mol/L.

Write down pIC50 measured for item Cc1cc(-c2cnn3cc(-c4ccc(N5CCNCC5)cc4)cnc23)c2ccccc2n1 [Compound 1]
6.01
